Test system: senescent human adult lung fibroblasts
runDescription: Apoptosis of senescent lung fibroblasts (cleaved caspase-3, DAPI)
Format: cell-based
studyConditions: replicatively senescent human adult lung fibroblasts, 96 hours, 6-point dose-response, N=3; read-out: Senescent fibroblast apoptosis EC50

[
  {
    "compound": "COc1cccc2oc(-c3ccc(OCc4ccccc4)cc3)c(O)c(=O)c12 [5-MeOH—F-20]",
    "EC50 [nM]": 350
  },
  {
    "compound": "O=c1c(O)c(-c2ccc(OCC3CC3)cc2)oc2ccccc12 [F—CP]",
    "EC50 [nM]": 900
  },
  {
    "compound": "O=c1c(O)c(-c2ccc(OCc3cccnc3)cc2)oc2ccccc12 [F—3N]",
    "EC50 [nM]": 44100
  },
  {
    "compound": "COc1ccc2oc(-c3ccc(OCc4ccccc4)cc3)c(O)c(=O)c2c1 [6-MeOH—F-20]",
    "EC50 [nM]": 800
  },
  {
    "compound": "CCCOc1ccc(-c2oc3ccccc3c(=O)c2O)cc1 [F-19(Me)]",
    "EC50 [nM]": 3400
  },
  {
    "compound": "CCOc1ccc(-c2oc3ccc(OC)cc3c(=O)c2O)cc1 [6-MeOH—F-19]",
    "EC50 [nM]": 2700
  },
  {
    "compound": "CCOc1ccc(-c2oc3ccccc3c(=O)c2O)cc1 [F-19]",
    "EC50 [nM]": 2400
  },
  {
    "compound": "O=c1c(O)c(-c2ccc(OCc3ccccc3)cc2)oc2ccccc12 [F-20]",
    "EC50 [nM]": 1500
  }
]

###

runDescription: in vitro
Assay type: in vitro ADME
studyConditions: rat
Protocol: Plasma protein binding assays were also performed (Table 2). Compounds were incubated with rat plasma for 4 hours. The percent of F-4N recovered was analyzed by LC-MS. Warfarin was used as a control for a compound with high plasma protein binding. Analysis performed by Cyprotex (Framingham, MA).

[
  {
    "compound": "CC(=O)CC(c1ccccc1)c1c(O)c2ccccc2oc1=O (stereo not shown)",
    "unitName": "%",
    "recovery at 4 h, 2 μM": 100
  }
]

###

Test system: Human adult lung fibroblasts (passage 3)
runDescription: Fibroblast activation (TGFβ, alpha-smooth muscle actin)
Assay type: cell-based
studyConditions: +2 ng/mL TGFβ, 96 hours, alpha-smooth muscle actin intensity
Each record here notes measured EC50.

[
  {
    "molecule": "COc1cccc2oc(-c3ccc(OCc4ccccc4)cc3)c(O)c(=O)c12 [5-MeOH—F-20]",
    "EC50 [µM]": 0.9
  },
  {
    "molecule": "O=c1c(O)c(-c2ccc(OCc3ccccc3)cc2)oc2ccccc12 [F-20]",
    "EC50 [µM]": 2
  },
  {
    "molecule": "O=c1c(O)c(-c2ccc(OCC3CC3)cc2)oc2ccccc12 [F—CP]",
    "EC50 [µM]": 1.1
  },
  {
    "molecule": "CCOc1ccc(-c2oc3ccccc3c(=O)c2O)cc1OC [F-19(3MeOH)]",
    "EC50 [µM]": 6.4
  },
  {
    "molecule": "CCCOc1ccc(-c2oc3ccccc3c(=O)c2O)cc1 [F-19(Me)]",
    "EC50 [µM]": 4
  },
  {
    "molecule": "CCOc1ccc(-c2oc3ccccc3c(=O)c2O)cc1 [F-19]",
    "EC50 [µM]": 2.4
  },
  {
    "molecule": "COc1ccc2oc(-c3ccc(OCc4ccccc4)cc3)c(O)c(=O)c2c1 [6-MeOH—F-20]",
    "EC50 [µM]": 2
  },
  {
    "molecule": "COc1cccc2oc(-c3ccc(OCc4ccncc4)cc3)c(O)c(=O)c12 [5-MeOH—F—4N]",
    "EC50 [µM]": 2.1
  },
  {
    "molecule": "CCOc1ccc(-c2oc3ccc(OC)cc3c(=O)c2O)cc1 [6-MeOH—F-19]",
    "EC50 [µM]": 4
  }
]

###

experimentalTarget: STK17B (Homo sapiens, UniProt O94768)
Sequence (O94768 1-372): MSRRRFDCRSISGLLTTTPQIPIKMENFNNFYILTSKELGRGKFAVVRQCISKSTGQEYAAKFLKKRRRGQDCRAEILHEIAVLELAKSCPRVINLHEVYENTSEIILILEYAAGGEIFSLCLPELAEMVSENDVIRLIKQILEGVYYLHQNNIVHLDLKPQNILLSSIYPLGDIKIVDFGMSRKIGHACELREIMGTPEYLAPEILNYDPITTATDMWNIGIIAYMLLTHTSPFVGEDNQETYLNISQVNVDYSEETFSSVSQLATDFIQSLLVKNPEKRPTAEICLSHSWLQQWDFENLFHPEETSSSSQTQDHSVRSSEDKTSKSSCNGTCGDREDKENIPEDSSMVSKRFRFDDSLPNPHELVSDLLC
pIC50: −log10 of the molar value.

[
  {
    "smilesInput": "O=c1c(O)c(-c2ccc(OCc3ccncc3)cc2)oc2ccccc12",
    "pIC50": "~6.70"
  }
]

###

System: senescent human adult lung fibroblasts
runDescription: Apoptosis of senescent lung fibroblasts (cleaved caspase-3, DAPI)
Format: cell-based
studyConditions: Fibroblast; replicatively senescent human adult lung fibroblasts, 96 hours, 6-point dose-response, N=3
pEC50: −log10 of the molar value.

[
  {
    "compound": "O=c1c(O)c(-c2ccc(OCc3ccncc3)cc2)oc2ccccc12 [F—4N]",
    "pEC50": 6.10
  }
]
